Each recorded value in this set is attributed to patent EP3755703B1.

# Target system: HPK1 (Homo sapiens, UniProt Q92918)
# Sequence (Q92918 1-346 limits assumed): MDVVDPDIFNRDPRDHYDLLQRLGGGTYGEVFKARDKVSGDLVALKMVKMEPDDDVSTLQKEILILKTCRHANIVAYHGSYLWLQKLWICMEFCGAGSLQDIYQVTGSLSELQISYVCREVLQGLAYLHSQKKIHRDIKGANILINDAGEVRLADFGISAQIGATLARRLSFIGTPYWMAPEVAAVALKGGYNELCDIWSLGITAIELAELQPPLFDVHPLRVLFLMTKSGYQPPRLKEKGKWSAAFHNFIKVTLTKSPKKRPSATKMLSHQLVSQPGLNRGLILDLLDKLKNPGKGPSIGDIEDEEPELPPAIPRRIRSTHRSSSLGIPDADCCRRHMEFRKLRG
Experimental readout: Ki

- Compound structure: "N[C@H]1C[C@@H](CO)N(c2ccc(F)cc2NC(=O)c2ccnc(-c3c(F)cccc3F)n2)C1"
  Value: "< 100 nM"
- Compound structure: "COc1cccc(F)c1-c1nccc(C(=O)Nc2ccc(-c3cnccc3C#N)cc2N2CC[C@H](N)C[C@@H]2C)n1"
  Value: "< 100 nM"
- Compound structure: "COc1cccc(F)c1-c1nccc(C(=O)Nc2ccccc2N2C[C@@H](N)C[C@H]2CO)n1"
  Value: "< 100 nM"
- Compound structure: "N#CC1(c2ccc(NC(=O)c3ccnc(-c4c(F)cccc4F)n3)c(N3C[C@@H](N)C[C@H]3CO)c2)CC1"
  Value: "< 100 nM"
- Compound structure: "COc1cccc(F)c1-c1nccc(C(=O)Nc2ccc(-c3cnccc3C#N)cc2N2CCN3C(=O)OC[C@H]3C2)n1"
  Value: "< 100 nM"

COc1cccc(F)c1-c1nccc(C(=O)Nc2cc(F)ccc2N2CCC[C@@H]2CN)n1 on HPK1 (Homo sapiens, UniProt Q92918) gives Ki = < 100 nM

Test item COc1c(F)ccc(F)c1-c1nccc(C(=O)Nc2ccc(-c3cnccc3C#N)cc2N2C[C@@H](N)C[C@H]2CO)n1 ; HPK1 (Homo sapiens, UniProt Q92918); reported Ki was < 100 nM

* * *

# Target system: HPK1 (Homo sapiens)
# Sequence (Q92918 1-346 limits assumed): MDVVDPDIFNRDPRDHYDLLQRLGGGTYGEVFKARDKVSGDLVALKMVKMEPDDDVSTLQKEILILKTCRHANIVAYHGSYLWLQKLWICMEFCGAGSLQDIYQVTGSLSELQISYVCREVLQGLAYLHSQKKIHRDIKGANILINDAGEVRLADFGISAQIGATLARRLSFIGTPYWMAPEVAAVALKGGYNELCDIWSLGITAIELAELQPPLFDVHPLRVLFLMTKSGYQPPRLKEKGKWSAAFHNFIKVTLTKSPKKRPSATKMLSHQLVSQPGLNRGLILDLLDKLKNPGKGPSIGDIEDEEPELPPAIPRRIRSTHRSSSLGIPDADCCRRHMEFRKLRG
Overview of reported Ki across a group of molecules:

- Molecule: "COc1cccc(F)c1-c1nccc(C(=O)Nc2cc(F)ccc2N2C[C@@H](N(C)C)C[C@H]2CO)n1 [Example 88]"
  Ki: "< 100 nM"

Looking up COc1cccc(F)c1-c1nccc(C(=O)Nc2ccc(-c3cnccc3C#N)cc2N2CCO[C@@H](CN(C)C)C2)n1 [Example 101] , I see its Ki listed as < 100 nM

Summary for this molecule, COc1cccc(F)c1-c1nccc(C(=O)Nc2cc(F)ccc2N2CCOCC2CO)n1 (stereo not shown) [Example 12] : Ki is < 100 nM

Reported Ki for COc1cccc(F)c1-c1nccc(C(=O)Nc2ccccc2C2CCNCC2)n1 [Example 78] was 100 to 500 nM
